- measurement notes: Human HepG2 cell viability assay in 384 well format
- Format: toxicity, cell-based
- Parameters: dose 125 nL, time 70.5 hour; concentration not given beside the values
- assay context: HepG2 cells, read-out: Inhibition
reported endpoint: cytotoxicity at 70.5 h (%)
Answers are plain numbers, in %.

# annotated cases, reported cytotoxicity at 70.5 h shown
What cytotoxicity at 70.5 h value was documented for this compound, CC1(c2ccccc2)CCCN(Cc2cncn2C2CC2)C1 (configuration not stated) ?
-8.21

What cytotoxicity at 70.5 h value was documented for this compound, Cc1[nH]ccc1C(=O)NCc1ncoc1C ?
-2.23

// input: 7 compounds below; output: cytotoxicity at 70.5 h for each
1. N#CCCCOc1cccnc1NC(=O)CC1CCCCC1
2. CS(=O)(=O)N1CCOC2(CCN(c3ncccn3)CC2)c2ccccc21
3. CCc1n[nH]c(C2CN(C(=O)Cc3cccs3)CCO2)n1 (configuration not stated)
4. Cc1nc(C)c(CNCc2nnc3n2CCCC3C(F)(F)F)s1 (configuration not stated)
5. O=C1C(NS(=O)(=O)c2cccc(F)c2)CCN1Cc1ccccc1 (configuration not stated)
6. Nc1nc2c(c(=O)[nH]1)CCN(C(=O)c1ccccc1N1CCCC1)C2
7. CCC(C)S(=O)(=O)N1CCc2nc(C3CCNCC3)ncc2C1 (configuration not stated)

1: 39.8; 2: -1.05; 3: 25.1; 4: -8.57; 5: -12; 6: 0.043; 7: -0.105

// input: 3 compounds below; output: cytotoxicity at 70.5 h for each
1. COc1cccc(CN2CCN(Cc3ccc4nonc4c3)CC2=O)c1
2. O=C(NCC(O)c1ccc(Cl)s1)c1ccoc1 (configuration not stated)
3. CC(C)c1nccc(-c2nccn2CCN(C)S(C)(=O)=O)n1

1. -0.956
2. -8.52
3. 19
